Experiment: Cytotoxicity against human Raji cells assessed as cell viability at 1000 molar ratio
Type: cell-based
Conditions: read-out: Activity
// viability at 1000 molar ratio lookup, one value per entry
PROPERTY_NAME: viability at 1000 molar ratio (%)

O=C1C=CC(=O)c2ccccc21
20
CC(=O)c1cc2c(o1)C(=O)c1ccccc1C2=O
0
O=C(O)c1cc(O)c2c(c1)[C@@H]([C@H]1c3cc(C(=O)O)cc(O)c3C(=O)c3c(O[C@@H]4O[C@H](CO)[C@@H](O)[C@H](O)[C@H]4O)cccc31)c1cccc(O[C@@H]3O[C@H](CO)[C@@H](O)[C@H](O)[C@H]3O)c1C2=O [SENNOSIDE B]
70

====

Assay: Cytotoxicity against human Raji cells assessed as cell viability at 100 molar ratio
Format: cell-based
Settings: read-out: Activity
PROPERTY_NAME: viability at 100 molar ratio

CC1(c2cc3c(o2)C(=O)c2ccccc2C3=O)OCCO1
10%
COc1c(CO)c(O)cc2c1C(=O)c1ccccc1C2=O
> 80%
CC(=O)c1cc2c(o1)C(=O)c1ccccc1C2=O
70%
COc1c(C=O)c(O)cc2c1C(=O)c1ccccc1C2=O
> 80%
CC1C=CNC2=C1C(=O)c1cc(O)ccc1C2=O (configuration not stated)
> 80%
CN(C)C1=CC(=O)c2cccc(O)c2C1=O
> 80%
CN(C)C1=CC(=O)c2c(O)ccc(O)c2C1=O
> 80%
O=C1C=CC(=O)c2c(O)ccc(O)c21
50%
Cc1cnc2c(c1)C(=O)c1c(O)ccc(O)c1C2=O
> 80%
O=C1c2ccccc2C(=O)c2sccc21
70%
O=C1c2ccccc2-c2ncccc21
> 80%
CC(C)=CC[C@@H](O)C1=CC(=O)c2c(O)ccc(O)c2C1=O
50%
Cc1ccnc2c1C(=O)c1cccc(O)c1C2=O
> 80%
COc1cccc2c1C(=O)c1ccc3c(c1C2=O)OCO3
> 80%
O=C1c2ccc(O)c(O)c2C(=O)c2c(O)ccc(O)c21
> 80%
COc1cccc2c1C(=O)c1ncc(C)cc1C2=O
> 80%
O=C1C=CC(=O)c2c(O)cccc21
> 80%

====

Assay: Cytotoxicity against human Raji cells assessed as cell viability at 500 molar ratio
Type: cell-based
Settings: read-out: Activity
PROPERTY_NAME: viability at 500 molar ratio (%)

O=C1C=CC(=O)c2cc(O)ccc21
60
CC1C=CNC2=C1C(=O)c1c(O)ccc(O)c1C2=O (stereo unspecified)
70
O=C1C=CC(=O)c2ccccc21
50

====

Species: Mus musculus
Assay: Displacement of [3H]TPA from TPA receptor in ICR mouse dorsal epidermis
Active and inactive are the calls of the source. No cut-off for these calls is given here.
Labels: True = active, False = inactive

O=C1c2ccc3c(c2C(=O)c2cccc(O)c21)OCO3
False
CCCCCCCCCCCCCC(=O)O[C@@H]1[C@@H](C)[C@@]2(O)[C@@H](C=C(CO)C[C@]3(O)C(=O)C(C)=C[C@@H]23)[C@@H]2C(C)(C)[C@]12OC(C)=O
True
COc1cccc2c1C(=O)c1ccc3c(c1C2=O)OCO3
False
Cc1ccnc2c1C(=O)c1c(O)ccc(O)c1C2=O
False
CC(C)=CC[C@@H](O)C1=CC(=O)c2c(O)ccc(O)c2C1=O
False
Cc1ccc2c(n1)C(=O)c1c(O)ccc(O)c1C2=O
False
CC(=O)c1cc2c(o1)C(=O)c1ccccc1C2=O
False
